target: BCRP (Homo sapiens)
test protocol: Membrane vesicle transport inhibition assay: BCRP-mediated [3H]-E1S uptake
study conditions: IC50, [3H]-E1S uptake into BCRP membrane vesicles, 1 min, 37°C; mean ± SEM of three experiments
Where a name gives a salt, the structure may show the parent alone.
Reported IC50 values for the following molecules.
metric name: IC50 (µM)

molecule="O=C(O)c1cc(=O)c2ccccc2[nH]1 [kynurenic acid]" reported=40
molecule="O=S(=O)(O)Oc1c[nH]c2ccccc12 [indoxyl sulfate]" reported=770
molecule="O=C(O)CNC(=O)c1ccccc1 [hippuric acid]" reported=3670

---

target: MRP4 (Homo sapiens)
test protocol: Membrane vesicle transport inhibition assay: MRP4-mediated [3H]-MTX uptake
pIC50: −log10 of the molar value. Counter-ions that a name gives are not always drawn.
metric name: pIC50

molecule="O=C(O)c1cc(=O)c2ccccc2[nH]1 [kynurenic acid]" reported=5.10
molecule="O=S(=O)(O)Oc1c[nH]c2ccccc12 [indoxyl sulfate]" reported=2.76

---

test protocol: Uremic plasma concentrations (Cu, Cmax) in CKD patients from the EUTox database and literature
Type: in vivo, human
study conditions: calculated as Cmax = Cu + 2 SD; read-out: Hypothetical Cmax
metric name: Cmax

smiles_code=O=C(O)Cc1ccccc1 reported="7700 µM"

---

Reported Ki values for the following compounds.
target: MRP4 (Homo sapiens)
test protocol: Membrane vesicle transport inhibition assay: MRP4-mediated [3H]-MTX uptake
Procedure: Human embryonic kidney (HEK293; purchased at American Type Culture Collection, Manassas, VA) cells were cultured in Dulbecco's modified Eagle's medium (Invitrogen life sciences, Breda, the Netherlands) containing 10% (v/v) fetal calf serum (MP Biomedicals, Uden, the Netherlands) at 37°C in a 5% (v/v) CO2 atmosphere. […]
Structures can show the parent of a compound that is named as a salt.
metric name: Ki (mM)

compound=O=C(O)CNC(=O)c1ccccc1 target="MRP4 (Homo sapiens)" unit_info=mM reported=2.5
compound=O=C(O)Cc1c[nH]c2ccccc12 target="MRP4 (Homo sapiens)" unit_info=mM reported=2
compound="O=S(=O)(O)Oc1c[nH]c2ccccc12 [indoxyl sulfate]" target="MRP4 (Homo sapiens)" unit_info=mM reported=1
compound=O=C(O)c1cc(=O)c2ccccc2[nH]1 target="MRP4 (Homo sapiens)" unit_info=mM reported=0.025

---

target: BCRP (Homo sapiens, UniProt Q9UNQ0)
Sequence (Q9UNQ0 whole entry): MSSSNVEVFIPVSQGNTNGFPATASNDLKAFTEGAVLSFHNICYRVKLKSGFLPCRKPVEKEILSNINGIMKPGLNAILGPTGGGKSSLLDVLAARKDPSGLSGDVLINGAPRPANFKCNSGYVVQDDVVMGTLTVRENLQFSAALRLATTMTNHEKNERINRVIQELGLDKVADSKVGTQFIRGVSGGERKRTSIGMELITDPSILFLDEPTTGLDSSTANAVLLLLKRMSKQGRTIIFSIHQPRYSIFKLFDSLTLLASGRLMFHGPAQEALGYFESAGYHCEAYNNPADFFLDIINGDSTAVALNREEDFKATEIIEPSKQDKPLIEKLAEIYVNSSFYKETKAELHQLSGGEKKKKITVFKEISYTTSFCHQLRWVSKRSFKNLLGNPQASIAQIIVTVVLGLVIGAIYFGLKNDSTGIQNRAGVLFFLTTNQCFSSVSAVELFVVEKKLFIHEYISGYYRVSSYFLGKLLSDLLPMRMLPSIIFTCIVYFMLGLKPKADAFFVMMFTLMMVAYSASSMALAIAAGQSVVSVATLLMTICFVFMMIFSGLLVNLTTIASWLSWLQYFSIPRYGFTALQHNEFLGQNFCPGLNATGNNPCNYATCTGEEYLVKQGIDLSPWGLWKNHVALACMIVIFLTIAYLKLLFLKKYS
test protocol: Membrane vesicle transport inhibition assay: BCRP-mediated [3H]-E1S uptake
study conditions: human, membrane vesicles from HEK293 cells overexpressing BCRP, pH 7, probe [3H]-estrone sulfate ([3H]-E1S)
Where a name gives a salt, the structure may show the parent alone.
metric name: IC20 at 1 min

compound=O=C(O)CNC(=O)c1ccccc1 target="BCRP (Homo sapiens, UniProt Q9UNQ0)" reported="690 µM"
compound=O=C(O)c1cc(=O)c2ccccc2[nH]1 target="BCRP (Homo sapiens, UniProt Q9UNQ0)" reported="10 µM"
compound="O=S(=O)(O)Oc1c[nH]c2ccccc12 [indoxyl sulfate]" target="BCRP (Homo sapiens, UniProt Q9UNQ0)" reported="390 µM"

---

target: MRP4 (Homo sapiens, UniProt O15439)
Sequence (O15439 whole entry): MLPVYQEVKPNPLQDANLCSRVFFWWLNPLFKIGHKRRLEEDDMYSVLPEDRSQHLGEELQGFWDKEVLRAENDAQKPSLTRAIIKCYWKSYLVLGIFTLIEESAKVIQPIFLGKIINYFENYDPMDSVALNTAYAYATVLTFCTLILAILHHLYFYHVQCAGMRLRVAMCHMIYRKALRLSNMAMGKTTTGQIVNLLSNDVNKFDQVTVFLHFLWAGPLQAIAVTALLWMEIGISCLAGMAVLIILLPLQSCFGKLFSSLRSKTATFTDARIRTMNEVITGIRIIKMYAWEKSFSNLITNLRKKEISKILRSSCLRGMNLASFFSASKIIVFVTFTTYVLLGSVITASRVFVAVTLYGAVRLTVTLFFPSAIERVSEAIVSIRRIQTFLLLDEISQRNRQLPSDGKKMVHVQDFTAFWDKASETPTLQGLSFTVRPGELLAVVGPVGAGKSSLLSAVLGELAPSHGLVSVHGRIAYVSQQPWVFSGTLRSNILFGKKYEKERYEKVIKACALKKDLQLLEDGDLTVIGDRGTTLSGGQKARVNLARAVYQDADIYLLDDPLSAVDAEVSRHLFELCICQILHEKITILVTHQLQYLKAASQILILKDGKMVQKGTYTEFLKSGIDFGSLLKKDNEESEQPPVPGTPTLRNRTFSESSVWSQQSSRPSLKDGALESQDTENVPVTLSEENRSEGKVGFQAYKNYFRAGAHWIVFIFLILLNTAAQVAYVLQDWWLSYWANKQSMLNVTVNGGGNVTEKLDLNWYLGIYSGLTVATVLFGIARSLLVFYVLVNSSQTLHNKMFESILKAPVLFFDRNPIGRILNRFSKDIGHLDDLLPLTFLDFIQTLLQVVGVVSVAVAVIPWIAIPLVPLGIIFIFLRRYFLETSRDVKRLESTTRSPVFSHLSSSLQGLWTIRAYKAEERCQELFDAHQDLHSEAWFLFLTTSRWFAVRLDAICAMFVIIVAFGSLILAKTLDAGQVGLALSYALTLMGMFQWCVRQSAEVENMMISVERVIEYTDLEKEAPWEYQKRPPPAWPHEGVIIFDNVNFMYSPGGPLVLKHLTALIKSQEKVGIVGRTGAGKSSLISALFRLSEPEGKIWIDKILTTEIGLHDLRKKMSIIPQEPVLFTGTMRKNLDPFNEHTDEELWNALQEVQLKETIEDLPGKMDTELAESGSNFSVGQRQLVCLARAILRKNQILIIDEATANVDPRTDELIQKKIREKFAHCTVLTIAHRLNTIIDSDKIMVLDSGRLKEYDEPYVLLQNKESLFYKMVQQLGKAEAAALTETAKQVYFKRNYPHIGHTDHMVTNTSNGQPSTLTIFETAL
test protocol: Membrane vesicle transport inhibition assay: MRP4-mediated [3H]-MTX uptake
study conditions: IC50, [3H]-MTX uptake into MRP4 membrane vesicles, 10 min, 37°C; mean ± SEM of three experiments
pIC50: −log10 of the molar value.
metric name: pIC50

compound="O=C(O)CNC(=O)c1ccccc1 [hippuric acid]" reported=3.00
compound="O=C(O)Cc1ccccc1 [phenylacetic acid]" reported=2.15
compound="O=C(O)Cc1c[nH]c2ccccc12 [indole-3-acetic acid]" reported=2.75

---

target: MRP4 (Homo sapiens)
test protocol: Membrane vesicle transport inhibition assay: MRP4-mediated [3H]-MTX uptake
study conditions: human, membrane vesicles from HEK293 cells overexpressing MRP4, pH 7, probe [3H]-methotrexate ([3H]-MTX)
Experimental: Human embryonic kidney (HEK293; purchased at American Type Culture Collection, Manassas, VA) cells were cultured in Dulbecco's modified Eagle's medium (Invitrogen life sciences, Breda, the Netherlands) containing 10% (v/v) fetal calf serum (MP Biomedicals, Uden, the Netherlands) at 37°C in a 5% (v/v) CO2 atmosphere. […]
Where a name gives a salt, the structure may show the parent alone.
Reported IC20 at 10 min values for the following compounds.
metric name: IC20 at 10 min

compound=O=C(O)c1cc(=O)c2ccccc2[nH]1 metric_name="IC20 at 10 min" reported="1.5 µM"
compound=O=C(O)CNC(=O)c1ccccc1 metric_name="IC20 at 10 min" reported="350 µM"
compound="O=S(=O)(O)Oc1c[nH]c2ccccc12 [indoxyl sulfate]" metric_name="IC20 at 10 min" reported="530 µM"
compound=O=C(O)Cc1c[nH]c2ccccc12 metric_name="IC20 at 10 min" reported="570 µM"

Measured values drawn from paper PMC3070735 for this set.
